Cited source: PubChem BioAssay AID2745

- assay protocol: LAP4-GFP modulation potency in yeast, dose response, cell-based, MLPCN hits, flow cytometry (AID 2745);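 note: yeast exposed to compound for three hours at 30 degrees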
- condition: S. cerevisiae LAP4-GFP reporter, flow cytometry fluorescence; at 33 µM (top of the series)
Activity calls are given as the source filed them. The rule behind the calls is not given here.

{"compound": "Cc1cccc(OCCN2CSC(=S)N(C)C2)c1", "LAP4-GFP fluorescence (kMESF)": "9.83 kMESF (inactive)"}
{"compound": "COc1cc(/C=C2\\C(=O)ON=C2c2ccccc2)cc(Br)c1O", "LAP4-GFP fluorescence (kMESF)": "14.7 kMESF (inactive)"}
{"compound": "Cc1cc(C)c(S(=O)(=O)N2CCC(C(=O)NCc3ccc(Cl)cc3Cl)CC2)c(C)c1", "LAP4-GFP fluorescence (kMESF)": "4.35 kMESF (inactive)"}
{"compound": "COc1cc(NC(=O)c2ccccc2[N+](=O)[O-])ccc1NC(=O)c1cc2ccccc2o1", "LAP4-GFP fluorescence (kMESF)": "3.31 kMESF (inactive)"}
{"compound": "C#CCOCCOCCOCCNc1nc(N2CCN(C(=O)CCCCCCCCCCNC(=O)[C@H](CCCCN)n3cc(CCO)nn3)CC2)nc(N2CCN(C(=O)CCCCCCCCCCNC(=O)[C@H](CCCN=C(N)N)n3cc(C[C@@H](C)CC)nn3)CC2)n1", "LAP4-GFP fluorescence (kMESF)": "6.17 kMESF (inactive)"}
{"compound": "Cc1ccc(C)c(/C=C/C(=O)c2ccccc(=O)c2O)c1", "LAP4-GFP fluorescence (kMESF)": "-0.2 kMESF (inactive)"}
{"compound": "CCC(=O)Nc1ccc(NC(=O)c2cc3ccccc3o2)cc1", "LAP4-GFP fluorescence (kMESF)": "3.31 kMESF (inactive)"}
{"compound": "COC(=O)CCS(=O)(=O)c1nc(-c2ccccc2)cc(C(F)(F)F)n1", "LAP4-GFP fluorescence (kMESF)": "20.1 kMESF (inactive)"}
{"compound": "O=C(Nc1ccc(NC(=O)c2cc3ccccc3o2)cc1)c1ccc2c(c1)OCCO2", "LAP4-GFP fluorescence (kMESF)": "3.21 kMESF (inactive)"}
{"compound": "Cc1ccc(C(=O)/C=C/C(=O)c2ccc(C)cc2)cc1", "LAP4-GFP fluorescence (kMESF)": "6.7 kMESF (inactive)"}
{"compound": "CCN(CC(=O)NC(C)(C)C)C(=O)COc1c(Cl)cc(Cl)c2ccc(C)nc12", "LAP4-GFP fluorescence (kMESF)": "11.7 kMESF (inactive)"}
{"compound": "Cc1ccnc(N2C(=O)c3cccc4c([N+](=O)[O-])ccc(c34)C2=O)c1", "LAP4-GFP fluorescence (kMESF)": "33.2 kMESF (inactive)"}
{"compound": "O=C(/C=C/c1cccc(Cl)c1)c1nc2ccccc2[nH]1", "LAP4-GFP fluorescence (kMESF)": "4.71 kMESF (inactive)"}
{"compound": "CC(C)(C)C1C/C(=C/c2ccccn2)C(=O)/C(=C/c2ccccn2)C1 (configuration not stated)", "LAP4-GFP fluorescence (kMESF)": "4.25 kMESF (inactive)"}
{"compound": "CC(=O)N(C(C)=O)c1ncnc2c1c(-c1ccc(Cl)cc1)nn2C(C)(C)C", "LAP4-GFP fluorescence (kMESF)": "3.97 kMESF (inactive)"}
{"compound": "O=C1N(c2ccccc2C(F)(F)F)O[C@@]1(c1ccccc1)C1CCCCC1", "LAP4-GFP fluorescence (kMESF)": "2.73 kMESF (inactive)"}
{"compound": "O=c1c2cnn(-c3ccccc3)c2ncn1Cc1ccco1", "LAP4-GFP fluorescence (kMESF)": "2.63 kMESF (inactive)"}
{"compound": "COc1ccc(OCC(=O)NNC(=S)NC(=O)C2CCCCC2)cc1", "LAP4-GFP fluorescence (kMESF)": "14.4 kMESF (inactive)"}
{"compound": "CC(=O)Nc1ncnc2c1c(-c1ccc(Cl)cc1)nn2C(C)(C)C", "LAP4-GFP fluorescence (kMESF)": "5.09 kMESF (inactive)"}
{"compound": "Cc1c(C)c2ccc(Oc3ccc([N+](=O)[O-])cc3C(F)(F)F)c(C)c2oc1=O", "LAP4-GFP fluorescence (kMESF)": "3.47 kMESF (inactive)"}
{"compound": "O=C(NC(=S)NNC(=O)[C@H]1C[C@@H]1c1ccccc1)c1cccc(F)c1", "LAP4-GFP fluorescence (kMESF)": "17.8 kMESF (inactive)"}
{"compound": "Cc1ccc(-c2nn(C(C)(C)C)c3ncnc(N)c23)cc1", "LAP4-GFP fluorescence (kMESF)": "8.82 kMESF (inactive)"}
